Data credit: paper PMC9712689

Tgt: T1, RlpA-Δ32, fluorescently labeled (P. aeruginosa PAO1, UniProt Q9X6V6 32-342, amine reactive RED-NHS dye)
T1 construct: source: E. coli BL21-star (DE3), purified (Ni-NTA), labelled with RED-NHS dye
T1 sequence: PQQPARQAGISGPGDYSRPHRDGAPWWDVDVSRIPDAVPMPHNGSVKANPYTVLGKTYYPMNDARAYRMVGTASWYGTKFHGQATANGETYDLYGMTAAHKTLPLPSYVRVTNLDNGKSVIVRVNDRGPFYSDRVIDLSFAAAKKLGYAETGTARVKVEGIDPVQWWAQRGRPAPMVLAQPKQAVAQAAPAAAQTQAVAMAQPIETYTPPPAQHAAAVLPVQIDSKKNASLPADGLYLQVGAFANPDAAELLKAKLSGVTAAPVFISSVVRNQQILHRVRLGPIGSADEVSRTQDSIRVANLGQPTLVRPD
Experiment Summary: MST
Experimental Context: both partners purified
Endpoint: Kd (nM)

- Binder: "PA2854 (natural protein, source: E. coli, purified (Ni-NTA or Strep-Tactin)) LELQLPPPGEDVVGQVQVIKAKYEDTFADLGEQYNLGYSEMVAANPGVDPWLPGVGTEVIIPTRFVLPPGPREGVVINLAEYRLYYYPKGQNVVHTYPLGIGREGWGSPIANTRITAKTKDPAWYPPASIRAEHAADGDPLPTVVPPGPDNPLGPYKLTLGVPGYLIHGSNKKFGIGTRTSHGCFRMYNADVTHLFSMISVGTSVRIINEPYKFGVSNGKVYLEAHTPLNDHGDPSVVDKHTAVINTLLKRDDLAKRIQLNWDVVREVVASEDGVPVEIAQESAPAMTATVDSDPTQLTP"
  Endpoint: "Kd"
  Measured: 58
